Target: T1, soluble human CTLA-4 expressed with a C-terminal myc-myc-polyhistidine tag (human)
T1 construct: soluble protein; also called hCTLA-4.mmh; hCTLA4.mmh
T1 sequence (chain, as listed by the source limits assumed): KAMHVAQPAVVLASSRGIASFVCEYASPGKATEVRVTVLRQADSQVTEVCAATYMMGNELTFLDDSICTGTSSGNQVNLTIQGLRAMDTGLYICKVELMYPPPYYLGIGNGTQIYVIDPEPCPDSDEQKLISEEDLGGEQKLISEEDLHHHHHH
Experiment: SPR, mAb capture, 25 C
koff values, listed per item
Answer in s⁻¹, number only, no unit symbol.

{"Binder": "H1H20370N (antibody, human IgG1, V domains shown, here with human IgG1 Fc (H1H)) VH: QVQLHESGPGLVKPSQTLSLTCSVSGGSISNGGYYWSWIRQHPGQGLEWIGYIYYIGNTYYNPSLESRVTMSIDTSKNQFSLKLSSVTAADTAIYYCARQEFVPGAEYFLHWGQGILVTVSS VL: DIRMTQSPSSLSASVGDRVTITCRASQTVNTFLNWYQQKPGKAPKLLIFGASSLQSGVPSRFSGSGSGTDFTLTISGLQPEDFAIYYCQQSYSVPPITFGQGTRLEIE", "Experimental Value": 0.000588}
{"Binder": "H1H19273P (antibody, human IgG1, V domains shown) VH: QITLKESGPTLVKPTQTLTLTCTFSGFSLSTSGVGVGWIRQSPGRALEWLALIYWNDHERYSPSLKSRLTITKDTSKNLVVLAMANMDPVDTATYFCAHRNIEYRRSYFFDYWGQGTLVTVSS VL: DIQMTQSPSSVSASVRDRVTVTCRASQDINNWLAWYQQKPGKAPKLLIYAASSLQSGVPSRFSGSGSGTDFTLTISSLQPEDFATYYCQQANTFPFTFGPGTKVDIK", "Experimental Value": 0.000362}
{"Binder": "H1H19294P (antibody, human IgG1, V domains shown) VH: QVQLVQSGAEVKMSGASVRVSCKASGYTFTSYGISWMRQAPGQGLEWMGWITAYNGNSNYAQKLQGRVTMTTDTSTGTAYMELRSLTSDDTAVYYCARRGDYLGVFPYWGQGTLVTVSS VL: DIQMTQSPSSLSASVGDRVTITCRASQSISSYLNWYQQKPGKAPNLLIYTASSLQSGVPSRFSGSGSGTDFTLTISSLQPEDFATYYCQQSYSSPLTFGGGTKVEIK", "Experimental Value": 0.000323}
{"Binder": "H1H19312P (antibody, human IgG1, V domains shown) VH: QVQLQESGPGLVKPSETLSLTCTVSGGSISSYHWSWIRQPLGKGLEWIGYIYYSGSTNYNPSLKSRVTISVDTSKNQFSLKLSSVTAADTAVYYCARGGSSIWPFDYWGQGTLVTVSS VL: DIQMTQSPSTLSASVGDRVTITCRASQSISSWLAWYQQKSGKAPKLLISKASTLESGVPSRFSGSGSGTEFTLTISSLQPDDFATYYCQQYNIYSWTFGQGTKVEIK", "Experimental Value": 0.00105}
{"Binder": "H1H19274P (antibody, human IgG1, V domains shown) VH: QVQLQESGPGLVKPSETLSLTCTVSGGSINSYYWTWIRQPPGKGLEWIGYVYYSGSTTYNPSLKSRVTISVDTSKNQFFLNLNSVTAAETAVYYCARGTLGYYGMDVWGQGTTVTVSS VL: EIVLTQSPGTLSLSPGERATLSCRASQSFSNNYLAWYQQKPGQAPRLLIYGTSIRATGIPDRFSGSGSGTDFTLAISRLEPEDFAVYYCQQYGRSPLTFGGGTKVEIK", "Experimental Value": 0.00076}
{"Binder": "H1H20386N (antibody, human IgG1, V domains shown, here with human IgG1 Fc (H1H)) VH: QVQLVESGGGVVQPGRSLRLSCAASGFTVNRYGIHWVRQAPGKGLEWVAVTWYDGRNKYFADSVKGRFSFSRDSSTNTLYLQMNSLRAEDTAVYYCARGGLFGYFDYWGQGTLVTVSS VL: EIVLTQSPDTLSLSPGERATLSCRASQSVAGSYLAWYQQKPGQAPRLLIYGASSRATGIPDRFSGSGSGTDFTLTISRLEPEDFAVYYCQQYGTSPWTFGQGTKVEIT", "Experimental Value": 0.00194}

Kindly consider the entry below.
Query: # lookup: koff of H1H19269P (antibody, human IgG1, V domains shown) VH: EVQLVESGGGLVQPGGSLKLSCAASGFTFSGSAMHWVRQASGKGLEWVGRIRGKANSFATAYSASVKGRFTISRDDSKNTASLQMNSLRTEDTAVYFCTREDQQLVRPYYYHYGMDVWGQGTTVTVSS VL: DIQMTQSPSSLSASVGDRVTITCRTSQSITNYLNWYQQKPGKAPKLLIYATASLQSGVPSRFSGSGSETDFTLTISSLQPEDFATYYCQQSYSTPLTFGGGTKVEIK
Reply: 0.000474
